# Details: in 1,4-dioxane, 313.15 K
Measured metric: solubility (mole fraction)
Give your answer as a number; write no unit.

// below: answered compounds
Value lookup for solubility (mole fraction); key = `O=C(/C=C/c1ccc(-c2cccc([N+](=O)[O-])c2)o1)c1ccc2ccc(=O)oc2c1`
0.00624

Field request: solubility (mole fraction) | item: `O=C(/C=C/c1ccc(-c2cccc([N+](=O)[O-])c2)o1)c1cccc([N+](=O)[O-])c1`
0.00605

Which solubility (mole fraction) value is on record for `O=C(/C=C/c1ccc(-c2cccc([N+](=O)[O-])c2)o1)c1ccccc1` ?
0.00571

May I ask what solubility (mole fraction) has been recorded for `O=C(/C=C/c1ccc(-c2cccc([N+](=O)[O-])c2)o1)c1ccc([N+](=O)[O-])cc1` ?
0.00241

Find the recorded solubility (mole fraction) belonging to `Nc1ccc(C(=O)/C=C/c2ccc(-c3cccc([N+](=O)[O-])c3)o2)cc1` and report it.
0.00252

Entry under review: `O=C(/C=C/c1ccc(-c2cccc([N+](=O)[O-])c2)o1)c1ccc(Br)cc1` . Reported solubility (mole fraction)?
0.00501

What measured solubility (mole fraction) goes with `COc1ccc(C(=O)/C=C/c2ccc(-c3cccc([N+](=O)[O-])c3)o2)cc1` ?
0.00742

Sample `O=C(/C=C/c1ccc(-c2cccc([N+](=O)[O-])c2)o1)c1ccc(Cl)cc1` — what was its solubility (mole fraction)?
0.00282

Given `O=C(/C=C/c1ccc(-c2cccc([N+](=O)[O-])c2)o1)c1ccc(O)cc1` , state its recorded solubility (mole fraction).
0.00591

Continuing:
Entry `O=C(/C=C/c1ccc(-c2cccc([N+](=O)[O-])c2)o1)CO` has what solubility (mole fraction)?
0.00711

====

# Details: in DMF, 298.15 K
Measured metric: solubility (mole fraction)
// return just the number, without any unit appended

A selection of reference data follows.
Quick one: solubility (mole fraction) of `O=C(/C=C/c1ccc(-c2cccc([N+](=O)[O-])c2)o1)c1ccccc1` ?
0.00983

So what's the measured solubility (mole fraction) for this one? `O=C(/C=C/c1ccc(-c2cccc([N+](=O)[O-])c2)o1)c1ccc([N+](=O)[O-])cc1`
0.00237

Field request: solubility (mole fraction) | item: `O=C(/C=C/c1ccc(-c2cccc([N+](=O)[O-])c2)o1)CO`
0.0094

Bench note: what solubility (mole fraction) did `O=C(/C=C/c1ccc(-c2cccc([N+](=O)[O-])c2)o1)c1ccc(O)cc1` show?
0.00665

Next:
Name the recorded solubility (mole fraction) for `O=C(/C=C/c1ccc(-c2cccc([N+](=O)[O-])c2)o1)c1cccc([N+](=O)[O-])c1` .
0.00604

====

# Details: in 1,4-dioxane, 298.15 K
Measured metric: solubility (mole fraction)

Some molecules with known solubility (mole fraction) results, for comparison:
I have this molecule here, `O=C(/C=C/c1ccc(-c2cccc([N+](=O)[O-])c2)o1)CO` , and I need its recorded solubility (mole fraction).
0.00705

What solubility (mole fraction) value was documented for this molecule, `O=C(/C=C/c1ccc(-c2cccc([N+](=O)[O-])c2)o1)c1ccc(Br)cc1` ?
0.00489

I have this molecule here, `O=C(/C=C/c1ccc(-c2cccc([N+](=O)[O-])c2)o1)c1ccc(Cl)cc1` , and I need its recorded solubility (mole fraction).
0.00271

# input molecule: `Nc1ccc(C(=O)/C=C/c2ccc(-c3cccc([N+](=O)[O-])c3)o2)cc1` ; wanted: its solubility (mole fraction)
0.00245

Item under review: `O=C(/C=C/c1ccc(-c2cccc([N+](=O)[O-])c2)o1)c1ccc([N+](=O)[O-])cc1` . Reported solubility (mole fraction)?
0.00229

I would be grateful if you could share the reported solubility (mole fraction) for `O=C(/C=C/c1ccc(-c2cccc([N+](=O)[O-])c2)o1)c1cccc([N+](=O)[O-])c1` .
0.00596

I would be grateful if you could share the reported solubility (mole fraction) for `COc1ccc(C(=O)/C=C/c2ccc(-c3cccc([N+](=O)[O-])c3)o2)cc1` .
0.00732

Which solubility (mole fraction) is listed for `O=C(/C=C/c1ccc(-c2cccc([N+](=O)[O-])c2)o1)c1ccc2ccc(=O)oc2c1` ?
0.00617

Continuing:
Name the recorded solubility (mole fraction) for `O=C(/C=C/c1ccc(-c2cccc([N+](=O)[O-])c2)o1)c1ccccc1` .
0.00553

Can you share its solubility (mole fraction)? I mean this molecule: `O=C(/C=C/c1ccc(-c2cccc([N+](=O)[O-])c2)o1)c1ccc(O)cc1`
0.00573

====

# Details: in DMF, 303.15 K
Tick criterion met if solubility (mole fraction) is 0.009 or greater. Tick criterion not met if solubility (mole fraction) is less than 0.009.

Illustrative cases are given below, each with its answer.
Answer whether solubility (mole fraction) of `O=C(/C=C/c1ccc(-c2cccc([N+](=O)[O-])c2)o1)c1ccc(Cl)cc1` is greater than or equal to 0.009.
criterion not met

solubility (mole fraction) >= 0.009 for `COc1ccc(C(=O)/C=C/c2ccc(-c3cccc([N+](=O)[O-])c3)o2)cc1` ?
criterion met

Quick check: does `O=C(/C=C/c1ccc(-c2cccc([N+](=O)[O-])c2)o1)CO` have solubility (mole fraction) greater than or equal to 0.009?
criterion met

***
Evaluate `O=C(/C=C/c1ccc(-c2cccc([N+](=O)[O-])c2)o1)c1ccc(Br)cc1` : solubility (mole fraction) at minimum 0.009?
criterion not met

Say whether `O=C(/C=C/c1ccc(-c2cccc([N+](=O)[O-])c2)o1)c1ccc(O)cc1` shows solubility (mole fraction) of 0.009 or more.
criterion not met

Please indicate if the recorded solubility (mole fraction) for `Nc1ccc(C(=O)/C=C/c2ccc(-c3cccc([N+](=O)[O-])c3)o2)cc1` meets or exceeds 0.009.
criterion not met

The reported measurements were obtained from BigSolDB 2.1.
